Parameter: min SC luc (%). Scope: all listed entries.
# System: CMV-luc
# Measurement notes: Secondary assays: CMV-luc in SC cells, Bright-Glo
# Assay type: cell-based, human
# Condition description: minimum CMV-luc signal in SC cells over 12 doses; summary data
Observable: min SC luc (%)

CNC(=O)c1nn(C)c2c1C(C)(C)Cc1cnc(Nc3ccc(N4CCN(C)CC4)cc3)nc1-2 : 96.2246
CC(C)c1cc(-c2n[nH]c(=O)n2-c2ccc3c(ccn3C)c2)c(O)cc1O : 55.4123
CC[C@@]1(O)C(=O)OCc2c1cc1n(c2=O)Cc2cc3ccccc3nc2-1 [Camptothecine (S+)] : 42.7084
Cc1ccc(-c2ncn(-c3ccc(Nc4nccc(-c5cccc(N6CCOCC6)c5)n4)cc3)n2)cn1 : 82.9006
Cc1cccc(Nc2nc(N[C@@H]3CCCC[C@H]3N)ncc2C(N)=O)c1 : 86.8204
C[C@@H](Oc1ccc2[nH]nc(C=Cc3cnn(CCO)c3)c2c1)c1c(Cl)cncc1Cl : 64.272
Clc1ccc(C[n+]2cc(-c3ccccc3)n3c2CCCCC3)c(Cl)c1.[Br-] : 72.1585
Cc1cnc(NC(=O)CN2CCN(c3ccccn3)CC2)s1 : 4.094
Nc1ncnc2c1c(-c1cnc3[nH]ccc3c1)nn2C1CCCC1 : 78.0969
CC(C)c1cc(C(=O)N2Cc3ccc(CN4CCN(C)CC4)cc3C2)c(O)cc1O : 71.1894
C[C@@]12OC(=O)[C@]1([C@@H](O)[C@@H]1C=CCCC1)NC(=O)[C@H]2CCCl : 96.8804
C[C@@H]1O[C@@H](O[C@@H]2C=C3CC[C@@H]4[C@H](CC[C@]5(C)[C@@H](c6ccc(=O)oc6)CC[C@]45O)[C@@]3(C)CC2)[C@H](O)[C@H](O)[C@H]1O : 121.976
CC1(C)CC(=O)c2c(C(F)(F)F)nn(-c3ccc(C(N)=O)c(N[C@H]4CC[C@H](O)CC4)c3)c2C1 : 82.2819
O=c1[nH]c(=O)n([C@H]2C[C@H](O)[C@@H](CO)O2)cc1F : 37.5061
N[C@@H](Cc1ccc(N(CCCl)CCCl)cc1)C(=O)O : 79.9664
Cc1cc(Nc2cc(CN3CCOCC3)c3nc(C)c(Cc4ccc(Cl)cc4F)n3n2)n[nH]1 : 67.1857
CN[C@@H]1CN(c2ccc3c(=O)c(C(=O)O)cn(-c4nccs4)c3n2)C[C@@H]1OC : 64.0102
C[C@@H]1CCC/C=C\[C@H]2C[C@H](O)C[C@@H]2[C@H](O)/C=C\C(=O)O1 [NCGC00017254-02, (+)-Brefeldin A] : 84.381

---

# Measurement notes: Secondary assays: multiplexed cell viability (CellTiter-Fluor)
# Condition description: human
Recorded viability at 24 h for the following compounds
Observable: viability at 24 h (%)

CC[C@@]1(O)C(=O)OCc2c1cc1n(c2=O)Cc2cc3ccccc3nc2-1 [Camptothecine (S+)] : 92.1
CNC(=O)c1nn(C)c2c1C(C)(C)Cc1cnc(Nc3ccc(N4CCN(C)CC4)cc3)nc1-2 : 74.4
NC(=O)Nc1cc(-c2cccc(F)c2)sc1C(=O)N[C@H]1CCCNC1 : 78.1
COc1cc2ncn(-c3cc(OCc4ccccc4C(F)(F)F)c(C(N)=O)s3)c2cc1OC [NCGC00242217-04, GW843682X] : 75.5
Cc1cc(Nc2cc(CN3CCOCC3)c3nc(C)c(Cc4ccc(Cl)cc4F)n3n2)n[nH]1 : 81.6
C[C@H]1O[C@@H](O[C@H]2[C@@H](O)C[C@H](O[C@H]3[C@@H](O)C[C@H](O[C@H]4CC[C@@]5(C)[C@H](CC[C@@H]6[C@@H]5C[C@@H](O)[C@]5(C)[C@@H](C7=CC(=O)OC7)CC[C@]65O)C4)O[C@@H]3C)O[C@@H]2C)C[C@H](O)[C@@H]1O : 67.9

Where do the numbers come from? From paper PMC9356275.
